From: paper PMC6002064

# assayText: Pharmacokinetic interaction study of oral DAS with nutraceuticals in acetic acid-induced UC Wistar rats (UPLC-MS/MS of plasma)
# Assay type: in vivo
# assayContext: male, Wistar, rat, plasma, time 1 h, DAS 25 mg/kg oral, read-out: Conc*10 (ng/mL plasma), average DAS plasma concentration
readout: concentration at 1 h (ng/mL)
Supply the numeric figure in ng/mL, leaving out any unit text.

*Q* Which measured concentration at 1 h value corresponds to Cc1nc(Nc2ncc(C(=O)Nc3c(C)cccc3Cl)s2)cc(N2CCN(CCO)CC2)n1 [DAS, Dasatinib] ?
*A* 153

###

# assayText: Stability of DAS in rat plasma QC samples
# Format: in vitro ADME
# assayContext: rat plasma QC samples; -30°C, 30 days; 450 ng/mL in rat plasma; n = 6; read-out: Mean recovery (%) ±RSD, long-term stability
readout: recovery at 30 days, 450 ng/mL

*Q* Entry Cc1nc(Nc2ncc(C(=O)Nc3c(C)cccc3Cl)s2)cc(N2CCN(CCO)CC2)n1 : reported recovery at 30 days, 450 ng/mL = ?
*A* 97.3%
